B1: Azoarcus group I ribozyme (parent)
chain: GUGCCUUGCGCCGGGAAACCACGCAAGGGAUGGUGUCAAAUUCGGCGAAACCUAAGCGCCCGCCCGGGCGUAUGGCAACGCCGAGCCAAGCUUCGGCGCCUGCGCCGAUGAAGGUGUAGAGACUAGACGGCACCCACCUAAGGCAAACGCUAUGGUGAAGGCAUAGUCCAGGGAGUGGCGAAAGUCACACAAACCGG

Variants of: B1
Assay: reverse-splicing fitness (ratio to wild type); higher = more active; in vitro selection; Mg2+ level not given
// map reverse-splicing fitness onto a label; ranges range 1 = under 0.006, range 2 = from 0.006 up to 0.01, range 3 = 0.01 and over

[
  {
    "variant_code": "A111G A120C C150G C169G",
    "answer_label": "range 2"
  },
  {
    "variant_code": "C82A A111C A145C C169G U176G",
    "answer_label": "range 2"
  },
  {
    "variant_code": "C82U A111C A145U C150U",
    "answer_label": "range 3"
  },
  {
    "variant_code": "C82A A111C A120C A145C C150G U176C",
    "answer_label": "range 2"
  },
  {
    "variant_code": "C82G A111U A120G A145G C150G C169U U176A",
    "answer_label": "range 3"
  },
  {
    "variant_code": "A111C A120U C150U C169U",
    "answer_label": "range 3"
  },
  {
    "variant_code": "C82G A120C A145U C169G",
    "answer_label": "range 2"
  },
  {
    "variant_code": "A120G A145G C150A U176G",
    "answer_label": "range 3"
  },
  {
    "variant_code": "C82A A111U A120C A145U C169G U176G",
    "answer_label": "range 2"
  },
  {
    "variant_code": "A111U A120G A145G C150G C169A U176G",
    "answer_label": "range 2"
  },
  {
    "variant_code": "C82G A111G A120C A145C C150A C169A U176C",
    "answer_label": "range 2"
  },
  {
    "variant_code": "C82A A111G A120U C169A U176A",
    "answer_label": "range 1"
  },
  {
    "variant_code": "A120G C169A",
    "answer_label": "range 3"
  },
  {
    "variant_code": "C82U A120C C150U C169G U176C",
    "answer_label": "range 3"
  },
  {
    "variant_code": "C82U A111C A120U A145G C150U C169G U176C",
    "answer_label": "range 1"
  },
  {
    "variant_code": "C82G A111U A120U A145C C169G U176C",
    "answer_label": "range 1"
  },
  {
    "variant_code": "A111U A145U C150A C169G U176G",
    "answer_label": "range 2"
  },
  {
    "variant_code": "C82G A111G A120U A145U C150A C169A U176G",
    "answer_label": "range 1"
  },
  {
    "variant_code": "C82U A111U A120U A145U C169G U176C",
    "answer_label": "range 1"
  },
  {
    "variant_code": "A120G C150G C169U U176A",
    "answer_label": "range 3"
  },
  {
    "variant_code": "C82U A111U A145U C150A C169U U176A",
    "answer_label": "range 3"
  }
]
